Would you kindly list cell viability for each of these compounds?
- Test system: NOMO1
- Method: cell viability relative to DMSO control; higher = less cytotoxic
- Cond: RPMI 5 mM glucose + 10% dialyzed FBS; 48 h; 0.19 µM
Express the result in % but write the number alone.

Task item: // lookup cell viability for `COC(=O)N[C@H](C(=O)N[C@@H](Cc1ccccc1)[C@@H](O)CN(Cc1ccc(-c2ccccn2)cc1)NC(=O)[C@@H](NC(=O)OC)C(C)(C)C)C(C)(C)C`
Reply: 103

Task item: // returns reported cell viability for input `CCc1cc(/C(C)=N/OCc2ccc(C3CCCCC3)c(C(F)(F)F)c2)ccc1CN1CC(C(=O)O)C1`
Reply: 114

Task item: Please report the recorded cell viability for CC(=O)SCC(Cc1ccccc1)C(=O)NCC(=O)OCc1ccccc1 (stereo not drawn) .
Reply: 98.4

###

- Test system: NOMO1
- Method: cell viability relative to DMSO control; higher = less cytotoxic
- Cond: RPMI 5 mM glucose + 10% dialyzed FBS; 48 h; 0.19 µM
Outcome Measure: cell viability (%)
Answer format: numeric, % implied, no suffix.

Task item: # lookup: cell viability of `CCC1=C(C)CN(C(=O)NCCc2ccc(S(=O)(=O)NC(=O)N[C@H]3CC[C@H](C)CC3)cc2)C1=O`
Reply: 93

Task item: Endpoint output: cell viability of `c1ccc2c(Oc3nc(Nc4ccc(N5CCOCC5)cc4)c4ncn(C5CCCCC5)c4n3)cccc2c1` . Value?
Reply: 146

Task item: Entry `CCOC(=O)c1ccc(C#Cc2ccc3c(c2)C(C)(C)CCS3)nc1` has what cell viability?
Reply: 90.2

Task item: Give the measured cell viability of `Cn1cc(-c2ccc3ncc(Cc4ccc5ncccc5c4)n3n2)cn1` .
Reply: 105

Task item: Which cell viability reading was recorded for the molecule `CC1=C(C)C2=C(S1)[N]3C(=NN=C3[C@H](CC(=O)OC(C)(C)C)/N=C2/C4=CC=C(Cl)C=C4)C` ?
Reply: 81.9

Task item: Query: cell viability; subject: CC1OC(OC/2=C(/OC3=C(C(=CC(=C3)O)O)C2=O)C4=CC=C(O)C=C4)C(O)C(OC(C)=O)C1OC(C)=O (centres undefined)
Reply: 114

Task item: Quick one: cell viability for `COc1cc2nc(-c3ccc(N4CCN(C)CC4)cc3)nc(NCCN3CCOCC3)c2cc1OC` ?
Reply: 95

Task item: Can you look up the measured cell viability of `COc1ccc([C@@H]2CNC(=O)C2)cc1OC1CCCC1` for me?
Reply: 115

Task item: Please look up its cell viability: `Nc1ccc([S+](=O)([O-])Nc2ccccn2)cc1`
Reply: 121

Task item: # input molecule: `CCCn1c(=O)c2[nH]c(-c3cnn(Cc4cccc(C(F)(F)F)c4)c3)nc2n(CC)c1=O` ; wanted: its cell viability
Reply: 103

Task item: Quick check: cell viability of `NC12CC3CC(CC(C3)C1)C2` ?
Reply: 105

Task item: Query: cell viability; subject: CCOP(=O)(OCC)C(C)NC(=O)N(CCCl)N=O (centres undefined)
Reply: 137

Task item: Query: cell viability; subject: `CNC(=O)c1c(F)cccc1Nc1nc(Nc2cc3c(cc2OC)CCN3C(=O)CN(C)C)nc2[nH]ccc12`
Reply: 112

Task item: Would you kindly share the measured cell viability for `CCCn1c(=O)c2[nH]c(C34CC5CC3C[C@@H](C5)C4)nc2n(CCC)c1=O` ?
Reply: 98.2

###

- Tested on: NOMO1
- Method: AUC of viability dose-response curve (% viability x log10 dose units); higher = less sensitive
- Cond: RPMI 5 mM glucose + 10% FBS; 48 h
Outcome Measure: AUC of viability dose-response curve
Give the value as a plain number.

Task item: Lab request: please report AUC of viability dose-response curve under test system NOMO1 for `N=C(N)c1ccc(OCCCCCOc2ccc(C(=N)N)cc2)cc1`
Reply: 447

Task item: What measured AUC of viability dose-response curve is associated with `CNC(=O)c1c(F)cccc1Nc1nc(Nc2cc3c(cc2OC)CCN3C(=O)CN(C)C)nc2[nH]ccc12` on NOMO1?
Reply: 459

Task item: Fill in the recorded AUC of viability dose-response curve for this molecule, with NOMO1 as test system: `O=C1c2cccc(O)c2C(=O)c2c(O)cc(CO)cc21`
Reply: 424

Task item: What value of AUC of viability dose-response curve on NOMO1 does `CCCCc1oc2ccc(NS(C)(=O)=O)cc2c1C(=O)c1ccc(OCCCN(CCCC)CCCC)cc1` have?
Reply: 332

Task item: Hi! What's the reported AUC of viability dose-response curve for CC(=O)SCC(Cc1ccccc1)C(=O)NCC(=O)OCc1ccccc1 (stereo not drawn) on NOMO1?
Reply: 358

Task item: Can you look up AUC of viability dose-response curve on NOMO1 for `CN(C)CCC=C1C2=C(C=CC=C2)\C=C/C3=C1C=CC=C3` ?
Reply: 440

Task item: Record lookup: for NOMO1, what AUC of viability dose-response curve belongs to Clc1ccc(COC(Cn2ccnc2)c2ccc(Cl)cc2Cl)cc1 (stereo not drawn) ?
Reply: 473

Task item: Give the reported AUC of viability dose-response curve for `CCCCCCCCCCCCCCCC(=O)OC[C@@H](NC(=O)C(Cl)Cl)[C@H](O)c1ccc([N+](=O)[O-])cc1` (system: NOMO1).
Reply: 461

Task item: Hi! What's the reported AUC of viability dose-response curve for `c1ccc(-c2nn3c(c2-c2ccnc4cc(OCCN5CCOCC5)ccc24)CCC3)nc1` on NOMO1?
Reply: 467

Task item: Hi! What's the reported AUC of viability dose-response curve for `COc1cc(/C=C/C(=O)CC(=O)/C=C/c2ccc(O)c(OC)c2)ccc1O` on NOMO1?
Reply: 440

Task item: Recall the recorded AUC of viability dose-response curve for `Cl.O[C@@H](CNC[C@H](O)[C@H]1CCc2cc(F)ccc2O1)[C@@H]1CCc2cc(F)ccc2O1` with NOMO1 and state it.
Reply: 446

Task item: // fetch NOMO1 AUC of viability dose-response curve for `C[C@@]12OC(=O)[C@@]1(NC(=O)[C@@H]2CCCl)[C@@H](O)[C@H]\3CCC\C=C3`
Reply: 254

Task item: Provide value of AUC of viability dose-response curve for this record tested with NOMO1: `C[C@@H]1CN(CC(=O)N2CC(C)(C)c3ncc(Cc4ccc(F)cc4)cc32)[C@@H](CN2CCOC[C@H]2C)CN1`
Reply: 456

Task item: For the record COc1ccc(-c2nc3cc(C4=NNC(=O)CC4C)ccc3[nH]2)cc1 (stereo not drawn) , what value of AUC of viability dose-response curve is listed for NOMO1?
Reply: 459

Task item: Query the reported AUC of viability dose-response curve for NOMO1; item: `CCN1CCN(Cc2ccc(-c3cc4c(N[C@H](C)c5ccccc5)ncnc4[nH]3)cc2)CC1`
Reply: 460

Task item: Item CC1OC(OC/2=C(/OC3=C(C(=CC(=C3)O)O)C2=O)C4=CC=C(O)C=C4)C(O)C(OC(C)=O)C1OC(C)=O (stereo not drawn) with NOMO1 - AUC of viability dose-response curve?
Reply: 430

Task item: Any idea what AUC of viability dose-response curve came out for `CC(C)[C@H](CO)Nc1nc(Nc2ccc(C(=O)O)c(Cl)c2)c2ncn(C(C)C)c2n1` on NOMO1?
Reply: 445

Task item: Report AUC of viability dose-response curve for `CC(C)c1ccc2oc3nc(N)c(C(=O)O)cc3c(=O)c2c1` tested on NOMO1.
Reply: 470

###

- Test system: SEM cells
- Method: cell viability relative to DMSO control; higher = less cytotoxic
- Cond: RPMI 5 mM glucose + 10% FBS; 48 h; 1.71 µM
Outcome Measure: cell viability (%)
Field: numeric (%). Do not append units.

Task item: Find cell viability (SEM cells) for the entry `COC1=CC=C2C(=CC=NC2=C1)OC3=CC=C(NC(=O)\C4=C(C)\N(CC(C)(C)O)N(C4=O)C5=CC=CC=C5)C=C3F`
Reply: 86.1

Task item: Please tell me: cell viability of `CN(C)[C@H]\1[C@@H]2[C@@H](O)[C@@H]\3C(=C)C4=C(C(=CC=C4)O)C(=O)C3=C(\O)[C@@]2(O)C(=O)\C(=C1O)C(N)=O` , system SEM cells?
Reply: 118

Task item: # value lookup — system SEM cells, readout cell viability, item CC(=O)SCC(Cc1ccccc1)C(=O)NCC(=O)OCc1ccccc1 (stereo not drawn)
Reply: 99.8

Task item: Report cell viability for `c1ccc2c(-c3cnn4cc(-c5ccc(N6CCNCC6)cc5)cnc34)ccnc2c1` tested on SEM cells.
Reply: 97.1

Task item: Enter reported cell viability observed with SEM cells for `NC\1=N\C(=O)N(\C=N1)[C@H]2C[C@H](O)[C@@H](CO)O2`
Reply: 63.8

Task item: Form: Entry = `C[C@@]12OC(=O)[C@@]1(NC(=O)[C@@H]2CCCl)[C@@H](O)[C@H]\3CCC\C=C3` | System = SEM cells | cell viability = ____
Reply: 6.4

Task item: API: value(readout= cell viability, system= SEM cells, query= O=C(C1CCCCC1)N1CC(=O)N2CCc3ccccc3C2C1 (stereo not drawn) )
Reply: 74.3

Task item: Form field - read-out: cell viability; system: SEM cells; submitted item: `COc1cc(/C=C/C(=O)CC(=O)/C=C/c2ccc(O)c(OC)c2)ccc1O`
Reply: 128

Task item: Value wanted: cell viability (SEM cells) of entry `CC1(C)OC/2=C(\[C@H](NCC3=CC=CC=C3)[C@@H]1O)C(=O)C4=CC=CC=C4C2=O`
Reply: 99.7

Task item: Notebook entry, SEM cells assay: cell viability of `c1ccc(-c2nn3c(c2-c2ccnc4cc(OCCN5CCOCC5)ccc24)CCC3)nc1` = ?
Reply: 138

Task item: Any idea what cell viability came out for `Cn1cc(-c2ccc3ncc(Cc4ccc5ncccc5c4)n3n2)cn1` on SEM cells?
Reply: 107

Task item: Kindly state the measured cell viability obtained for `N#Cc1c(C2CCNCC2)cc(-c2c(O)cccc2OCC2CC2)nc1N` with SEM cells.
Reply: 118

Task item: Find cell viability (SEM cells) for the entry `COC(=O)N[C@H](C(=O)N[C@@H](Cc1ccccc1)[C@@H](O)CN(Cc1ccc(-c2ccccn2)cc1)NC(=O)[C@@H](NC(=O)OC)C(C)(C)C)C(C)(C)C`
Reply: 110
